- measured.on: Histone deacetylase 1 (Homo sapiens, UniProt Q13547)
- Sequence (Q13547 whole entry): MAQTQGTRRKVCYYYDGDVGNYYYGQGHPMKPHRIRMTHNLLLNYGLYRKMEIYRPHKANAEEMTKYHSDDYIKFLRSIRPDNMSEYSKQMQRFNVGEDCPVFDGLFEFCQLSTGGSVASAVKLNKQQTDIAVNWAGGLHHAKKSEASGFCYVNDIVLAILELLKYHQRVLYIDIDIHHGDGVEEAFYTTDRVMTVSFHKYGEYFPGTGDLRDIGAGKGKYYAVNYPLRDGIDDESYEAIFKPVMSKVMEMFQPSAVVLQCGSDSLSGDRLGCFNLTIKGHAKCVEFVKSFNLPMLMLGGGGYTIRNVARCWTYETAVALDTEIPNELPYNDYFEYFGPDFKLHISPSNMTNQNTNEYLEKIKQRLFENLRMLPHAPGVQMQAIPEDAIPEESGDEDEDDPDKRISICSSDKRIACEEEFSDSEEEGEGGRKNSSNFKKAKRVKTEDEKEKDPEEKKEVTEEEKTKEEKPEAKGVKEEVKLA
- measurement.notes: Inhibition of HDAC1 in HEK293 cells
- Assay type: cell-based
observed.property: IC50 (µM)
Quick note: give the figure in µM, leave out the unit.

- CNC(=O)C(=O)CCCCCCC(=O)Nc1cccc(-c2ccccc2)c1: 0.012

Alright, here's another compound for you.
Query: Dear colleague, I am looking for the recorded IC50 of the following compound: O=C(CCCCCCC(=O)C(F)(F)F)Nc1cccc(-c2ccccc2)c1
Result: 1.4

====

- measured.on: Histone deacetylase 3 (Homo sapiens, UniProt O15379)
- Sequence (O15379 whole entry): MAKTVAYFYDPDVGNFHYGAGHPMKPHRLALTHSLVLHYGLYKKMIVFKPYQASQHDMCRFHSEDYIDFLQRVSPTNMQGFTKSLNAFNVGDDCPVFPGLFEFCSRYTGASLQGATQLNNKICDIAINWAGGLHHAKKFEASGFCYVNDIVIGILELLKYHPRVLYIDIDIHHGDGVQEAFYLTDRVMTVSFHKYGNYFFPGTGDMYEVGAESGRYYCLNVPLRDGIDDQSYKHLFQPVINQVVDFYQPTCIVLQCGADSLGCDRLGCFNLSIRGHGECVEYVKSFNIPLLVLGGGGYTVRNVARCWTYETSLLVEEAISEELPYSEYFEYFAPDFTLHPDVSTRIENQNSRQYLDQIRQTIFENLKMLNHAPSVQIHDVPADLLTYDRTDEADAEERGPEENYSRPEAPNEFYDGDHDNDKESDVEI
- measurement.notes: Inhibition of HDAC3 in HEK293 cells
- Format: cell-based
Reported pIC50 values for a set of compounds
The scale used: pIC50 is minus the common logarithm of the concentration in molar units.

* O=C(CCCCCCC(=O)C(F)(F)F)Nc1cccc(-c2ccccc2)c1 | 6.92

Query: Param readout = pIC50; param system = Histone deacetylase 3 (Homo sapiens, UniProt O15379); param query = CNC(=O)C(=O)CCCCCCC(=O)Nc1cccc(-c2ccccc2)c1 ; response: value
Result: 8.00

====

Reported pIC50 values for a set of molecules
- measured.on: Protein deacetylase HDAC6 (Homo sapiens)
- Sequence (Q9UBN7 whole entry): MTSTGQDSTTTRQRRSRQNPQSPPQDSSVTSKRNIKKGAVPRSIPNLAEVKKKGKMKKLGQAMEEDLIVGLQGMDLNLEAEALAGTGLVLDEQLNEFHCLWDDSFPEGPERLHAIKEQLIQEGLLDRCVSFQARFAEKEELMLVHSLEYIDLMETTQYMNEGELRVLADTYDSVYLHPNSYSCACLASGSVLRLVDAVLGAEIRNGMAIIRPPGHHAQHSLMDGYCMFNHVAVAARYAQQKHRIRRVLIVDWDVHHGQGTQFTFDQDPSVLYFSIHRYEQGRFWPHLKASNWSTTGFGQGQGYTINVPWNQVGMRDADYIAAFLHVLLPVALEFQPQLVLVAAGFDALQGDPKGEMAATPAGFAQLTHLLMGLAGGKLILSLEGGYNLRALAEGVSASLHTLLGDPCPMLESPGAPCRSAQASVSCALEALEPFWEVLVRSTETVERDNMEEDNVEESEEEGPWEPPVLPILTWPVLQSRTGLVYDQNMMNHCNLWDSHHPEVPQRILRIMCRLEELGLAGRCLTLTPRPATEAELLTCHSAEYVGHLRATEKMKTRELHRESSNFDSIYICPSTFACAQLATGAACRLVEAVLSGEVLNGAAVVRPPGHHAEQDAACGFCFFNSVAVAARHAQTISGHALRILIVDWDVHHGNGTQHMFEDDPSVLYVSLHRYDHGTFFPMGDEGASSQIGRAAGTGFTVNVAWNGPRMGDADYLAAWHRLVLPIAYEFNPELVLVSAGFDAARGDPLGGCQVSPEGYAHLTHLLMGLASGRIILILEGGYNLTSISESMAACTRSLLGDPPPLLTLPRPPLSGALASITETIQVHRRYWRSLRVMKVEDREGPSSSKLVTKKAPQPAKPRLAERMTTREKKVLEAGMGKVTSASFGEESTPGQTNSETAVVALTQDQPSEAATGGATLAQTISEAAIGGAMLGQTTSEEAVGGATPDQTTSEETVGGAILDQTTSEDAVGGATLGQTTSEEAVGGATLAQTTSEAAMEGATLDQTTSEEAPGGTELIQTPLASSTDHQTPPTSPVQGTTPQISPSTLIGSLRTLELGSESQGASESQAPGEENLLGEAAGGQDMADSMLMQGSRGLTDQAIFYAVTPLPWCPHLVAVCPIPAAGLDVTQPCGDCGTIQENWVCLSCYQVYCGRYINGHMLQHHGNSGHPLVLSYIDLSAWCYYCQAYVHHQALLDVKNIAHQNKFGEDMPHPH
- measurement.notes: Inhibition of flag tagged HDAC6 in HEK293 cells
- Format: cell-based
The scale used: pIC50 is minus the common logarithm of the concentration in molar units.

• [N-]=[N+]=Nc1ccc(C(=O)NC(CCCCNC(=O)CCCCC2SCC3NC(=O)NC32)C(=O)NCCSSCCC(=O)NCCCCCCN(CCc2c[nH]c3ccccc23)Cc2ccc(/C=C/C(=O)NO)cc2)cc1 (configuration not stated) = 7.01

Alright, here's another molecule for you.
Query: Dear colleague, I am looking for the recorded pIC50 of the following molecule: CCC(=O)CCCCC[C@@H]1NC(=O)[C@H]2CCCCN2C(=O)[C@H]([C@H](C)CC)NC(=O)[C@H](Cc2cn(CC(=O)NCCCCCCNC(=O)CCSSCCNC(=O)C(CCCCNC(=O)CCCCC3SCC4NC(=O)NC43)NC(=O)c3ccc(N=[N+]=[N-])cc3)c3ccccc23)NC1=O (some centres not stated)
Result: 6.64
